experiment: recombinant barcode read abundance after kanamycin selection (control-corrected) (log10(CPM+1)); higher = more efficient recombination; sequences stand for … in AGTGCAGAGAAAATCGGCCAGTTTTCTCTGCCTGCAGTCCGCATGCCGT…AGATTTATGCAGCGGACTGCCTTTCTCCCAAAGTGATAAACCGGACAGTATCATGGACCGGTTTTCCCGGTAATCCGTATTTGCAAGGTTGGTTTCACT; site = the 11-nt target
# reported recombinant barcode read abundance (log10); entries follow
Measure: recombinant barcode read abundance (log10)

Residue string: ACTTGTTCTTGGGTTCTAACCTGTTGCCT (site ACTTGTTCTAG)
Meas value: 0.567
--
Residue string: CGGCTCACTTGGGTTCTAACCTGTTGCCT (site CGGCTGACTAG)
Meas value: 0.123
--
Residue string: ACATGACCTTGGGTTCTAACCTGTTGCTT (site ATATGAGCTAA)
Meas value: 0.0302
--
Residue string: TCGCGAACTTGGGTTCTAACCTGTTGCCT (site TCGCGAACTAG)
Meas value: 0.252
--
Residue string: GAGGGTCCTTGGGTTCTAACCTGTTGCAT (site GAGGGTCCTAT)
Meas value: 2.74
--
Residue string: AAATGGGCTTGGGTTCTAACCTGTTGCGG (site AAATGGGCTCC)
Meas value: 2.5
--
Residue string: GTGTACCCTTGGGTTCTAACCTGTTGCCT (site GCGTACCCTAG)
Meas value: 1.13
--
Residue string: CTGTCTACTTGGGTTCTAACCTGTTGCCT (site CGGTCTACTAG)
Meas value: 0.134
--
Residue string: AATTAAGCTTGGGTTCTAACCTGTTGCCT (site AATTTAGCTAG)
Meas value: 0.223
--
Residue string: TCGTATACTTGGGTTCTAACCTGTTGCGG (site TCGTATACTCC)
Meas value: 0.396
--
Residue string: GAAGTCGCTTGGGTTCTAACCTGTTGCCT (site GAAGTCGCTAG)
Meas value: 1.78
--
Residue string: CGGAAGACTTGGGTTCTAACCTGTTGCCT (site CGGAAGGCTAG)
Meas value: 0.537
--
Residue string: AGTTGTCCTTGGGTTCTAACCTGTTGCCT (site AGTTGTCCTAG)
Meas value: 0.132
--
Residue string: ACCGAGTCTTGGGTTCTAACCTGTTGCCT (site AACGAGTCTAG)
Meas value: 0.202
--
Residue string: TACGTGTCTTGGGTTCTAACCTGTTGCCT (site TACGTGTCTAG)
Meas value: 2.4
--
Residue string: GGCTGTTCTTGGGTTCTAACCTGTTGCCT (site GTCTGTTCTAG)
Meas value: 0.242
--
Residue string: AGTACCTCTTGGGTTCTAACCTGTTGCCT (site AGTACCTCTAG)
Meas value: 0.941
--
Residue string: ACCCACACTTGGGTTCTAACCTGTTGCCG (site ACCCACACTCG)
Meas value: 1.8
--
Residue string: GTGTCAACTTGGGTTCTAACCTGTTGCCT (site GTGTCAGCTAG)
Meas value: 0.0423
--
Residue string: ATCACAGCTTGGGTTCTAACCTGTTGCCT (site ATCAAAGCTAG)
Meas value: 0.136
--
Residue string: GGACGCCCTTGGGTTCTAACCTGTTGCCT (site GGACGCCCTAG)
Meas value: 1.35
--
Residue string: GAGACATCTTGGGTTCTAACCTGTTGCCT (site GAGATATCTAG)
Meas value: 0.206
--
Residue string: GATAGAACTTGGGTTCTAACCTGTTGCTT (site GAGAGGACTAA)
Meas value: 0.204
--
Residue string: GAGTGGCCTTGGGTTCTAACCTGTTGCAT (site GAGTGGCCTAG)
Meas value: 0.318
--
Residue string: CTACGTACTTGGGTTCTAACCTGTTGCCT (site CTACGTACTAG)
Meas value: 1.3
--
Residue string: GCCTGGGCTTGGGTTCTAACCTGTTGCCT (site GCCTGGGCTAG)
Meas value: 0.317
--
Residue string: AGAGTAGCTTGGGTTCTAACCTGTTGCAC (site AGAGTAGCTGT)
Meas value: 2.41
--
Residue string: CTCGTCACTTGGGTTCTAACCTGTTGCCT (site CTCGTTACTAG)
Meas value: 0.0923
--
Residue string: ATGAAGCCTTGGGTTCTAACCTGTTGCCT (site TTGAAGCCTAG)
Meas value: 0.503

###

test: recombinant UMI read abundance after kanamycin selection (control-corrected) (log10(CPM+1)); higher = more efficient recombination; extreme values may be limits of the assay; sequences stand for … in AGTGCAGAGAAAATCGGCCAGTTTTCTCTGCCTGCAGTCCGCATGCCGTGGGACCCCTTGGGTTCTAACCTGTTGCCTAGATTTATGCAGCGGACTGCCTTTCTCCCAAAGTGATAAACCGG…AGGTTGGTTTCACT; site = the 11-nt donor

Residue string: GTTACAACATGGACCGGTTTTCCCGGTAATCCGTATTTGAT (site GTTACAACTAT)
recombinant UMI read abundance (log10): 0.492

Residue string: CGGAATCCATGGACCGGTTTTCCCGGTAATCCGTATTTGTT (site CGGATTCCTAG)
recombinant UMI read abundance (log10): 0

Residue string: ACGAGGCCATGGACCGGTTTTCCCGGTAATCCGTATTTGCC (site ACGAGGCCTGG)
recombinant UMI read abundance (log10): 0.486

Residue string: AATTAGCCATGGACCGGTTTTCCCGGTAATCCGTATTTGAG (site AATTAGCCTCT)
recombinant UMI read abundance (log10): 0.017

Residue string: TTGGCCACATGGACCGGTTTTCCCGGTAATCCGTATTTGGA (site TTGGCCACTTC)
recombinant UMI read abundance (log10): 0.146

Residue string: TAAAATCCATGGACCGGTTTTCCCGGTAATCCGTATTTGTA (site TAAACTCCTTA)
recombinant UMI read abundance (log10): 1.43

Residue string: AGTGCCGCATGGACCGGTTTTCCCGGTAATCCGTATTTGGG (site AGTGCCGCTCC)
recombinant UMI read abundance (log10): 0.025

Residue string: CTTCCTACATGGACCGGTTTTCCCGGTAATCCGTATTTGTA (site CTTCCTACTTA)
recombinant UMI read abundance (log10): 0.451

Residue string: CGCCGCACATGGACCGGTTTTCCCGGTAATCCGTATTTGCT (site CGCCGAACTAG)
recombinant UMI read abundance (log10): 0

Residue string: GTAGTCGCATGGACCGGTTTTCCCGGTAATCCGTATTTGAG (site GTAGTCGCTCG)
recombinant UMI read abundance (log10): 0.73

Residue string: TTGCTGACATGGACCGGTTTTCCCGGTAATCCGTATTTGCG (site TTGCTGACTCG)
recombinant UMI read abundance (log10): 1.33

Residue string: CAAGAGCCATGGACCGGTTTTCCCGGTAATCCGTATTTGTG (site CAAGTGCCTCA)
recombinant UMI read abundance (log10): 0.0217

Residue string: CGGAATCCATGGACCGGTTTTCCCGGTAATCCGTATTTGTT (site CAGAGTCCTAA)
recombinant UMI read abundance (log10): 0.0165

Residue string: GTTAGAACATGGACCGGTTTTCCCGGTAATCCGTATTTGGC (site CTTAGAACTGC)
recombinant UMI read abundance (log10): 0

###

assay: recombinant UMI read abundance after kanamycin selection (control-corrected) (log10(CPM+1)); higher = more efficient recombination; extreme values may be limits of the assay; sequences stand for … in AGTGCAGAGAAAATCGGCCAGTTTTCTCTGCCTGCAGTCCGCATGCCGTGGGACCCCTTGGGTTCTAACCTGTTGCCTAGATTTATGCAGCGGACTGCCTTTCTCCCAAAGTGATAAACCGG…AGGTTGGTTTCACT; site = the 11-nt donor

Residue string: CAATGCTCATGGACCGGTTTTCCCGGTAATCCGTATTTGAA (site CAATGCTCTTT)
recombinant UMI read abundance (log10): 2.57

Residue string: CTACGGGCATGGACCGGTTTTCCCGGTAATCCGTATTTGAG (site CTACGGGCTCT)
recombinant UMI read abundance (log10): 1.72

Residue string: CAAGCGCCATGGACCGGTTTTCCCGGTAATCCGTATTTGTG (site CAATCGCCTCA)
recombinant UMI read abundance (log10): 0.0117

Residue string: GCTACGCCATGGACCGGTTTTCCCGGTAATCCGTATTTGCG (site GCTACGCCTCG)
recombinant UMI read abundance (log10): 0.00779

Residue string: CTTCTTTCATGGACCGGTTTTCCCGGTAATCCGTATTTGTA (site CTTCTCTCTTA)
recombinant UMI read abundance (log10): 0

Residue string: GCGTTTCCATGGACCGGTTTTCCCGGTAATCCGTATTTGCT (site GCGTTTCCTAG)
recombinant UMI read abundance (log10): 1.81

Residue string: TAAGGAGCATGGACCGGTTTTCCCGGTAATCCGTATTTGGG (site TAATGAGCTCC)
recombinant UMI read abundance (log10): 0.0199

Residue string: AACCAAGCATGGACCGGTTTTCCCGGTAATCCGTATTTGAG (site ACCCAAGCTCT)
recombinant UMI read abundance (log10): 0.33

Residue string: AACCGTCCATGGACCGGTTTTCCCGGTAATCCGTATTTGAG (site AACCGTCCTGT)
recombinant UMI read abundance (log10): 0

Residue string: ACATCTACATGGACCGGTTTTCCCGGTAATCCGTATTTGGG (site ACATCTACTCG)
recombinant UMI read abundance (log10): 0.00576
